All figures here come from ChEMBL document CHEMBL1142631.

// level, % of control lookup, one value per entry
- Tested on: Raji
- Protocol description: Inhibition of 12-O-tetradecanoylphorbol 13-acetate-induced Epstein-Barr virus early antigen activation in human Raji cells assessed as EA induction at 100 mol ratio relative to TPA; values are per cent of control
- Condition: human gammaherpesvirus 4
Just the number in %, nothing appended.

Below: 5 compounds and their reported level, % of control.
- Compound: "COC(=O)[C@]1(C)CCC[C@]2(C)c3ccc(C(C)(C)O)cc3C(=O)C[C@@H]12"
  level, % of control / %: 72.9
- Compound: "CC(C)c1ccc2c(c1)CC[C@H]1[C@](C)(C(=O)O)CCC[C@]21C [DEHYDROABIETIC ACID]"
  level, % of control / %: 75
- Compound: "C=C[C@]1(C)CC[C@@H]2[C@@]3(C)CC[C@@H](C)C(=C)[C@@H]3CC[C@@]2(C)O1"
  level, % of control / %: 77.1
- Compound: "CC(C)c1ccc2c(c1)C(=O)C[C@H]1C(C)(C)CCC[C@]21C"
  level, % of control / %: 74.7
- Compound: "C=C1CCC[C@]2(C)c3ccc(C(C)C)cc3C(=O)C[C@@H]12"
  level, % of control / %: 75.9

Prompt: Sample CC1=C(/C=C/C(C)=C/C=C/C(C)=C/C=C/C=C(C)/C=C/C=C(C)/C=C/C2=C(C)CCCC2(C)C)C(C)(C)CCC1 — what was its level, % of control?
Completion: 82

Prompt: Same lookup for CC(=O)/C=C/[C@@H]1[C@@]2(C)CCCC(C)(C)[C@@H]2CC[C@@]1(C)O , please.
Completion: 68.4

Prompt: Another compound: CC(C)c1ccc2c(c1)CC[C@H]1[C@](C)(C(=O)O)CCC[C@]1(C)O2
Completion: 85

Prompt: Item: CC(C)[C@]12C=C3CC[C@H]4[C@](C)(C(=O)O)CCC[C@]4(C)[C@]3(CC1)OO2
Completion: 63.7

Prompt: Thanks! And C=C[C@]1(C)CC[C@@H]2[C@@]3(C)CCCC(C)(C)[C@@H]3CC[C@@]2(C)O1 ?
Completion: 70.4

Prompt: Quick one: CC(C)c1cc2c(cc1O)[C@@]1(C)CCC[C@@](C)(C(=O)O)[C@@H]1CC2
Completion: 66.4

* * *

- Protocol description: Cytotoxicity against human Raji cells assessed as cell viability at 1000 molar ratio/TPA
- Format: cell-based
- Condition: read-out: Activity
Quantity name: viability at 1000 molar ratio/TPA (%)
Response body: numeric value in %, unit text excluded.

- Compound: "CC(=O)/C=C/[C@@H]1[C@@]2(C)CCCC(C)(C)[C@@H]2CC[C@@]1(C)O"
  Unit abbrev: "%"
  viability at 1000 molar ratio/TPA: 60
- Compound: "CC(C)[C@]12C=C3CC[C@H]4[C@](C)(C(=O)O)CCC[C@]4(C)[C@]3(CC1)OO2"
  Unit abbrev: "%"
  viability at 1000 molar ratio/TPA: 70
- Compound: "CC(C)c1cc2c(cc1O)[C@@]1(C)CCC[C@@](C)(C(=O)O)[C@@H]1CC2"
  Unit abbrev: "%"
  viability at 1000 molar ratio/TPA: 70

Prompt: // returns reported viability at 1000 molar ratio/TPA for input COC(=O)[C@]1(C)CCC[C@]2(C)c3ccc(C(C)(C)O)cc3C(=O)C[C@@H]12
Completion: 70

Prompt: And the next one, CC(C)c1ccc2c(c1)CC[C@H]1[C@](C)(C(=O)O)CCC[C@]21C [DEHYDROABIETIC ACID] ?
Completion: 70

Prompt: Continue with C=C[C@]1(C)CC[C@@H]2[C@@]3(C)CC[C@@H](C)C(=C)[C@@H]3CC[C@@]2(C)O1
Completion: 70

Prompt: Then this compound: CC(C)c1ccc2c(c1)CC[C@H]1[C@](C)(C(=O)O)CCC[C@]1(C)O2
Completion: 60

Prompt: Field entry: CC(C)c1ccc2c(c1)C(=O)C[C@H]1C(C)(C)CCC[C@]21C
Completion: 70

Prompt: Can you check C=C[C@]1(C)CC[C@@H]2[C@@]3(C)CCCC(C)(C)[C@@H]3CC[C@@]2(C)O1 next?
Completion: 70

Prompt: Cool, now C=C1CCC[C@]2(C)c3ccc(C(C)C)cc3C(=O)C[C@@H]12
Completion: 70
